From: paper PMC11362645

# METHOD_DESCRIPTION: In vitro MTT cytotoxicity assay on MDBK cells
# Assay type: cell-based, bovine
# CONDITION_PARAMETERS: bovine, MDBK cells (NBL-1 strain)
METRIC: viability at 24 h, 1 µM (%)
Field format: number, assumed %, no unit text.

See these solved cases before continuing.
>>> readout_number("Oc1cc(O)c2c(c1)O[C@H](c1ccc(O)c(O)c1)[C@H](O)C2 [Component A-3, Epicatechin]")
91
>>> readout_number("Oc1cc(O)cc(/C=C/c2ccccc2)c1")
102
>>> readout_number("Oc1cc(O)c2c(c1)O[C@H](c1cc(O)c(O)c(O)c1)[C@@H](O)C2")
81.4
>>> readout_number("OC[C@H]1O[C@@H](Oc2ccc(O)cc2)[C@H](O)[C@@H](O)[C@@H]1O")
86.4
>>> readout_number("CC[C@@H](C(=O)[C@@H](C)[C@@H](O)[C@H](C)CCc1ccc(C)c(O)c1C(=O)O)[C@H]1O[C@](CC)([C@H]2CC[C@](O)(CC)[C@H](C)O2)C[C@@H]1C [lasalocid, reference compound]")
110
>>> readout_number("C[C@H]1[C@H](C)CC[C@]2(C(=O)O)CC[C@]3(C)C(=CC[C@@H]4[C@@]5(C)CC[C@H](O)C(C)(C)[C@@H]5CC[C@]43C)[C@H]12")
86.4
>>> readout_number("Cc1cc(O)cc(O)c1")
95.3

Let's switch to this molecule now.
Query: Sample `CC1(C)CC[C@]2(C(=O)O)CC[C@]3(C)C(=CC[C@@H]4[C@@]5(C)CC[C@H](O)C(C)(C)[C@@H]5CC[C@]43C)[C@@H]2C1` — what was its viability at 24 h, 1 µM?
Response: 99.2
